procedure-details: folding stability dG unfold from trypsin proteolysis; higher = more stable
This listing pairs sequences with measured folding stability dG unfold.

| construct-sequence | result-unit | folding stability dG unfold |
| --- | --- | --- |
| SAGGSAGGSAGGKLILKVKVEVVSVKVEPLPGVPGEVKVEVEVKVEVELIEVSEEELKSSAGGSAGGSAGGS [r10_654_TrROS_Hall] | kJ/mol | 7.85 |
| SAGGSAGGSIKPGQKVKIEIKVEEVDGKLVITAKVYNKDGKLIYEAEIVIENGKIKEVKITPPSAGGSAGGS [r12_264_TrROS_Hall] | kJ/mol | 10.8 |
| SAGGMKVKVEVEITVNGKLVKKLTVEMSVEELKKLIEELLPPGAKVEVKIVEVKVEEVEVYELPEEEKSAGG [r13_491_TrROS_Hall] | kJ/mol | 7.56 |
| SAGGSFGIEIEFHGNGFVIEMFNPETDTINTMRFKFDPDGQFTEMEMETIPIPPPPPPEKDENGKESAGGSA [r2_375_TrROS] | kJ/mol | 9.49 |
| SAGGMKIRLDNGKEIEINQSPGYMSIQIRPPDDGKKREYPFPMPDGENSMEDFVNEIANHGRITEIEPSAGG [r13_579_TrROS] | kJ/mol | 2.18 |
| SAGGSAGGSAGGSLPLILRLAEENGFSVSAVPIPETGTYKAVVTLPDGKPITIELPLTLSAGGSAGGSAGGS [r4_121_TrMRF] | kJ/mol | 1.23 |
| SAGGSAGGSAGMELKIKVTLTPPGAPVPLTLELEVESEEEARERLEKEYPDREIELEVLESAGGSAGGSAGG [r17_428_JUSTAS] | kJ/mol | -2.23 |
| SAGGSAGGSAGAFVGYRDEGGRYWLRTPEGELELDSEEDALEWADFLRANGIPLLSEPRPSAGGSAGGSAGG [r17_35_TrMRF] | kJ/mol | 4.51 |
| SAGGSAGGSAGGSPLIVEFKGDELRNTIPSGFEVLSEERDPELGYVRAALRALGSGETLSAGGSAGGSAGGS [r4_435_TrMRF] | kJ/mol | -2.96 |
| SAGGSAEEIARKLAEELAEEGEEVEVEVVEVEVEKVDGKEKVIRIRVKVKLPNGEELELELEIKLDELSAGG [r13_215_TrROS_Hall] | kJ/mol | 9.96 |
| SAGSIEAAVEALEKELREKGYKVSVELVETDPSDPNRLNLVIRVTVEGFSPESKPLGKKEETYVIEGGSAGG [r19_418_JUSTAS] | kJ/mol | 4.67 |
| SAGGSAGGSAGGMKVTTINLPDGTTIEYYPETGSVTIHPSDGSVSTRPDLTLEDVLAALSAGGSAGGSAGGS [r10_569_JUSTAS] | kJ/mol | 9.94 |
| SAGGSAGGSAGGKKTITVPVKIEEVDGKFRITLPDGKVIEFPPGAKVEEKDGLLTIELESAGGSAGGSAGGS [r10_305_TrROS_Hall] | kJ/mol | 3.9 |
| SAGGSAGGSAGGMLYVKVKTEDGEELVLEVEGMTEDEIREELAKAGFKIEEIEVYEVEPSAGGSAGGSAGGS [r10_572_TrROS_Hall] | kJ/mol | 9.87 |

* * *

procedure-details: folding stability dG unfold from chymotrypsin proteolysis; higher = more stable
Entries are sorted into classes by folding stability dG unfold as follows: low class (below 1 kcal/mol), middle class (1 kcal/mol to below 2 kcal/mol), high class (2 kcal/mol or more)

| construct-sequence | cat |
| --- | --- |
| SETITLEIELPDGSKLTIEIPVEKIPGVDEYVVTVKITEYLPNGKPRSREFTFLAKSPEEAVEIALLAAGSA [r9_337_TrMRF] | high class |
| SAGGSAGGSAGLELTVGDVPVDVYVDPDTERALAYFPLFNRVAIVDLPTGKVYVVPLDDILSAGGSAGGSAG [r3_137_TrMRF] | middle class |
| GMNLKETTVTIPLKVKSEEEAKKKAEEIANELKKKYPDIIEIKIEIKEIDKETGIVIITIKFKAKNSSVLLS [r1_52_JUSTAS] | middle class |
| SAGGSAGGSAGGWIRNKDGKPVKLEIYPFPVEMWMYRKKPDGGWEPHPMRMPFTFIRITPSAGGSAGGSAGG [r7_90_TrROS] | middle class |
| SEKPLVTLELELVVETEEQARAAVEALLAALPEEEIVDIRVEVEEVDVFENGELVGRRRRVRVTIVVRRPSA [r9_605_TrROS_Hall] | high class |
| SAGGSAGGSAGALPFKVKVVEVEVDGDEVTVKVVAELPTGTATVELKLGGKLETLTISPVSAGGSAGGSAGG [r17_45_TrMRF] | high class |
| SAGGMKAKATFKIPKTFVDPKNNSPKISESEITIEREFKSEEEAKEFVEKIKEELPPELTELVSLELESAGG [r19_209_JUSTAS] | low class |
| SAGGSPPNITYELTFPDGTVYTDPLPGKSLEELKEYVKSLNFTNVEVTVYEESSEVSTYKVTIPPNESAGGS [r16_700_JUSTAS] | low class |
| SAGGSAGGSAGGMKPQPIKVTVERHFPDGTVELEELVFPSPEEVEKFLKENPDWTVVEVESAGGSAGGSAGG [r11_802_JUSTAS] | high class |
| SAGGSAGGSAGMRVVEVYRLPDGSYRIRFPDGTEVEVSPEELEEVARRLGADEVRVRPELSAGGSAGGSAGG [r11_312_JUSTAS] | high class |
| SAGGSAMTIEIVVPTLEAIEKLAEETGAEVVEVRFFEEEGLVVVRIKVPESKEELLEKIREALGLESAGGSA [r15_118_TrROS_Hall] | high class |
| SAGGMVTITTEKMTEEEAEELKKKLPPNTVLLPNPANDTIVPILVPPDPAVLQAVKDALEKELAEAKSAGGS [r16_311_JUSTAS] | low class |
| SAGGPITITYDEETGVLTITITVPSLEEAEALIKALLPPGAEATRITVERNEDGSVTVTVEIRLPKGLSAGG [r13_338_TrROS_Hall] | middle class |
